B1: POU domain, class 6, transcription factor 2, residues 609 to 663; numbered along this chain, P78424 (parent)
chain: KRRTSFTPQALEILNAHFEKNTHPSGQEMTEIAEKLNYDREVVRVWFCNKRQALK

Variants of: B1
experimental details: abundance fitness (aPCA) (normalised: wild type 0, dead -1); higher = more abundant; growth selection in yeast, the domain comes from the species named
test context: Homo sapiens
experimental readout: abundance fitness
Provide a numeric answer; units are not to be included.

• KRRTSFTPQALEILNAHFEKNTHPSGQEMTEIAEQLNYDREVVRVWFCNKRQALK [K35Q] = -0.095
• KRRTSFTPQALEILNAHKEKNTHPSGQEMTEIAEKLNYDREVVRVWFCNKRQALK [F18K] = -0.927
• KRRTSFTPQALEILNAHFEKNTHPSGQEMTEIACKLNYDREVVRVWFCNKRQALK [E34C] = 0.127

response.value for KRRTSFTPQALEILNAHFEKNTHPSGQEMTEIAEKLNYDRKVVRVWFCNKRQALK [E41K] (field: abundance fitness) = 0.021

response.value for KRRTSFTPQALEILNAHFEKNTHPSGQEMTEIAEKLNYDREVVRVWFCNKRQYLK [A53Y] (field: abundance fitness) = -0.018

response.value for KRRTSFTPQALEILNAHFEKNTHPSGQEMTAIAEKLNYDREVVRVWFCNKRQALK [E31A] (field: abundance fitness) = -0.114

response.value for KRRTSFTPQALEILNAHFENNTHPSGQEMTEIAEKLNYDREVVRVWFCNKRQALK [K20N] (field: abundance fitness) = -0.227

Measured values drawn from the Human Domainome abundance scans (Beltran et al. 2025) for this set.
